These data points were gathered from patent US8178506B2.

Below, each entry is listed with its recorded IL-12 mRNA expression, % UTC.
- Test system: IL-12 mRNA
- assay_comment: IL-12 mRNA in LPS-activated primary murine macrophages
- Type: cell-based, mouse
- run_conditions: 75 nM, −IFN, LPS; average of 3 treatments
In the oligonucleotide strings, read from the 5' end, every base follows the letter of its sugar. An asterisk marks phosphorothioate; unmarked linkages are phosphodiester. Other units and linkages are bracketed, terminal groups are in braces. A string of capitals states the bases alone. e = 2'-O-(2-methoxyethyl) (MOE); [5mC] = 5-methylcytosine; d = 2'-deoxy (DNA)
Report the figure in % UTC without appending any unit label.

Some substances with known IL-12 mRNA expression, % UTC results, for comparison:
327921 (antisense e[5mC]*eT*eT*e[5mC]*e[5mC]*eA*eG*eT*e[5mC]*eG*eG*eG*eG*eA*eT*eG*eT*eT*eT*eA*e[5mC]*eA) [compound 327921] : 109
342683 (antisense CCTTCCCTGAAGGTTCCTCCTT; scrambled control, further chemistry not given here) [compound 342683] : 121
327941 (antisense eA*eA*e[5mC]*e[5mC]*e[5mC]*eA*e[5mC]*e[5mC]*eG*eA*e[5mC]*eA*eG*e[5mC]*eA*eA*eT*eG*eA*eA*eT*eG*eT*eT) [compound 327941] : 49
129690 (antisense TTAGAATACGTCGCGTTATG; sugars from the 5' end e5 d10 e5, all phosphorothioate, methylation of C not given here) [compound 129690] : 114

Exam item: Form field: reported IL-12 mRNA expression, % UTC of 229927 (antisense e[5mC]*e[5mC]*eA*e[5mC]*eA*dT*dT*dG*dA*dG*dT*dT*dT*d[5mC]*dT*eT*eT*eA*eA*eG) [compound 229927]
Marked response: 67

Exam item: Form field: reported IL-12 mRNA expression, % UTC of 289606 (antisense CCUUCCCUGAAGGUUCCUCC; all 2'-MOE, all C 5-methyl, all phosphorothioate, T or U not given here) [compound 289606]
Marked response: 89

* * *

- Test system: HeLa cells
- assay_comment: Cell cycle assay in HeLa cells
- Format: cell-based, human
- run_conditions: HeLa cells, 150 nM oligomeric compound, 24 hours, relative to untreated control (UTC = 100)
In the oligonucleotide strings, read from the 5' end, every base follows the letter of its sugar. An asterisk marks phosphorothioate; unmarked linkages are phosphodiester. Other units and linkages are bracketed, terminal groups are in braces. A string of capitals states the bases alone. e = 2'-O-(2-methoxyethyl) (MOE); [5mC] = 5-methylcytosine; d = 2'-deoxy (DNA)
Below, each entry is listed with its recorded % cells in cell cycle phase subG1.
Report the figure in % without appending any unit label.

Some substances with known % cells in cell cycle phase subG1 results, for comparison:
327901 (antisense eT*eG*eA*eG*e[5mC]*eT*eA*e[5mC]*eA*eG*eT*eG*e[5mC]*eT*eT*e[5mC]*eA*eT*e[5mC]*eT*e[5mC]*eA) [compound 327901] : 108
338797 (antisense CTGGGGAGGGGGTTAGCGTC; all 2'-MOE, all phosphorothioate, methylation of C not given here) [compound 338797] : 197

Next item in the queue.
Exam item: Form field: reported % cells in cell cycle phase subG1 of 328419 (antisense eT*eG*eT*eT*eG*d[5mC]*d[5mC]*dT*dA*dA*d[5mC]*dG*dA*dA*d[5mC]*eA*e[5mC]*eA*eG*eA) [compound 328419]
Marked response: 87
